Cited source for all entries: patent US20240270821A1

target: hGIPR (Homo sapiens, UniProt P48546); assay: Functional cAMP activation in the presence of 0.1% casein (no HSA); assay type: cell-based; settings: in the presence of 0.1% casein (no HSA); geometric mean; read-out: Relative cAMP EC50, hGIPR;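 further: intracellular cAMP rise after 30 min at 37 °C read by HTRF against a standard curve, scaled between buffer alone (0%) and top control ligand concentration (100%), four-parameter fit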
Sequence (P48546 22-466): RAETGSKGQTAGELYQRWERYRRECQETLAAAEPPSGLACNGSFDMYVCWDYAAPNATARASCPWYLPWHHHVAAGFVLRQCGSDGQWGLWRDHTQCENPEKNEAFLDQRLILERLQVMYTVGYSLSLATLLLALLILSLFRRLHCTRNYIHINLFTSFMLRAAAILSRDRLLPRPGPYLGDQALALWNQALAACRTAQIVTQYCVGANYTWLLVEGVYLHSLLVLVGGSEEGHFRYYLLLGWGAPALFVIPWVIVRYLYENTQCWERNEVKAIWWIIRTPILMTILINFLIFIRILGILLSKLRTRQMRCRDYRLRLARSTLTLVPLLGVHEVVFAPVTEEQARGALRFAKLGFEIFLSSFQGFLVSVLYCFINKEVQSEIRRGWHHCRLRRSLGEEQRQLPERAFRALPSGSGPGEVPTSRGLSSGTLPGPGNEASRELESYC
Starred links: 1 amine or outer side, 2 acyl side, 3 side chain; linkers in the order of their positions; H or OH if unused. Non-standard residues stand in square brackets, D forms with d. Groups on a side chain read outwards from the residue. No end group written: not given here. *: point of attachment. C20 diacid = O=C(O)CCCCCCCCCCCCCCCCCCC(=O)*; C18 diacid = O=C(O)CCCCCCCCCCCCCCCCC(=O)*; Phe(4-CN) = N#Cc1ccc(C[C@H](N)C(=O)O)cc1; αMePhe(2-F) = C[C@](N)(Cc1ccccc1F)C(=O)O; γGlu = O=C(O)[C@H](CCC(=O)[*:2])N[*:1]; NMeY = CN[C@@H](Cc1ccc(O)cc1)C(=O)O; αMe4Pal = C[C@](N)(Cc1ccncc1)C(=O)O; αMeF = C[C@](N)(Cc1ccccc1)C(=O)O; 4Pal = N[C@@H](Cc1ccncc1)C(=O)O; αMeL = CC(C)C[C@](C)(N)C(=O)O; Orn = NCCC[C@H](N)C(=O)O; AEEA = NCCOCCOCC(=O)O; Aib = CC(C)(N)C(=O)O
Endpoint label: EC50 (pM)

1. H-Y[Aib]QGTFTSDYSK[αMeL]LDKK([AEEA-γGlu-C20 diacid])AQ[Aib]AFVQWLLEGGPSSGEPPPSEG-NH2 [Example 343] | 184
2. H-Y[Aib]QGT[αMePhe(2-F)]TSD[Phe(4-CN)]SILLDKQAQK([AEEA-γGlu-C20 diacid])AFIQYLLEGGPSSGEPPPSEG-NH2 [Example 341] | 213
3. H-Y[Aib]QGTFTSDFS[Orn][αMeL]LDKK([AEEA-γGlu-C18 diacid])AQ[Aib]AFIEYLLAGGPSSGAPPPSGE-NH2 [Example 86] | 145
4. H-Y[Aib]QGTFTSD[4Pal]SQ[αMeL]LD[Orn]K([γGlu-γGlu-C18 diacid])AQ[αMe4Pal]AFIEYLIAGGPSSGEPPPSGTEEE-NH2 [Example 986] | 299
5. Y[Aib]QGTFTSDFS[Orn][αMeL]LDKK([AEEA-AEEA-γGlu-C18 diacid])AQ[Aib]AFIEYLLE[dA]GPSSGEPPPSEG-NH2 [Example 116] | 382
6. H-[NMeY][Aib]QGT[αMeF]TSDYSILLDKIAAK([AEEA-AEEA-γGlu-C20 diacid])AFIEYLIEGGPSSGEPPPSEG-NH2 [Example 299] | 137
7. H-Y[Aib]QGTFTSDFS[Orn][αMeL]LDKK([AEEA-γGlu-C18 diacid])AQ[Aib]AFIEYLLAGGPSSGAPPPSGSQ-OH [Example 88] | 177
8. Y[Aib]QGTFTSD[4Pal]SQ[αMeL]LDKK([Glu-γGlu-C18 diacid])AQ[αMe4Pal]AFIEYLIAGGPSSGAPPPSGE-NH2 [Example 1086] | 117
9. H-Y[Aib]QGTFTSDYSI[αMeL]LDKIAAK([AEEA-AEEA-γGlu-C20 diacid])QFVQWLIE[Aib]GPSSGEPPPSEG-NH2 [Example 323] | 232
10. H-Y[Aib]QGTFTSDFS[Orn][αMeL]LDKK([γGlu-γGlu-C18 diacid])AQ[Aib]AFIEYLLE[Aib]GPSSGAPPPSGS-NH2 [Example 201] | 55.3
11. H-Y[Aib]QGTFTSD[4Pal]S[Orn][αMeL]LD[Orn]K([γGlu-γGlu-C18 diacid])AQ[αMe4Pal]AFIEYLIE[Aib]GPSSGAPPPSGS-NH2 [Example 939] | 143
12. Y[Aib]QGTFTSD[4Pal]SQ[αMeL]LDKK([AEEA-γGlu-C18 diacid])AQ[Aib]AFIEYLLE[dA]GPSSGAPPPSG[4Pal]-NH2 [Example 822] | 186
